Target: Cholinesterase (Equus caballus)
Assay: Inhibition of equine serum BChE at 10 uM pre-incubated for 5 mins before butyrylthiocholineiodide substrate addition by Ellman's method
parameter measured: inhibition (%)
# number only, unit % dropped from output

Provide the documented inhibition with Cholinesterase (Equus caballus) as the system for `Nc1nc(O)c2c(n1)CCC2`
45.8

Provide the documented inhibition with Cholinesterase (Equus caballus) as the system for `N#CCSc1nc(N)c2c3c(sc2n1)CCCC3`
65.4

Provide the documented inhibition with Cholinesterase (Equus caballus) as the system for `Oc1nc(S)nc2c1CCCN2`
30.4

Provide the documented inhibition with Cholinesterase (Equus caballus) as the system for `CN1CCNc2nc3ccccc3nc21`
42.1

Provide the documented inhibition with Cholinesterase (Equus caballus) as the system for `O=c1c(Br)c[nH]c2cccnc12`
24.2

Provide the documented inhibition with Cholinesterase (Equus caballus) as the system for `Nc1nc(N)c2c(Br)cccc2n1`
82.5

Provide the documented inhibition with Cholinesterase (Equus caballus) as the system for `Nc1c2c(nc3c4c(nn13)CCC4)CCC2`
59.2

Provide the documented inhibition with Cholinesterase (Equus caballus) as the system for `Nc1nc(N)c2c(n1)CCC2`
46.7

Provide the documented inhibition with Cholinesterase (Equus caballus) as the system for `Nc1c2c(nc3ccccc13)N(Cc1ccccc1)CC2`
99.8

---

Hi there, I'd appreciate the recorded inhibition for every entry that follows.
Molecular target: Acetylcholinesterase (Electrophorus electricus)
Assay: Inhibition of Electrophorus electricus AChE at 10 uM pre-incubated for 5 mins before acetylthiocholine iodide substrate addition by Ellman's method
# number only, unit % dropped from output

Provide the documented inhibition with Acetylcholinesterase (Electrophorus electricus) as the system for `N#CCSc1nc(N)c2c3c(sc2n1)CCCC3`
34.2

Provide the documented inhibition with Acetylcholinesterase (Electrophorus electricus) as the system for `Nc1nc(N)c2c(Br)cccc2n1`
76.9

Provide the documented inhibition with Acetylcholinesterase (Electrophorus electricus) as the system for `COc1ccc2nc(C(F)(F)F)c(C#N)c(N)c2c1`
85

Provide the documented inhibition with Acetylcholinesterase (Electrophorus electricus) as the system for `CC(=O)c1oc2ccccc2c1N`
13.3

Provide the documented inhibition with Acetylcholinesterase (Electrophorus electricus) as the system for `CN1CCNc2nc3ccccc3nc21`
26.1

Provide the documented inhibition with Acetylcholinesterase (Electrophorus electricus) as the system for `Nc1c2c(nc3sccc13)CCCC2`
99.8

Provide the documented inhibition with Acetylcholinesterase (Electrophorus electricus) as the system for `CCCCN1CCc2c1nc1ccc(Br)cc1c2N`
90.6

Provide the documented inhibition with Acetylcholinesterase (Electrophorus electricus) as the system for `Nc1ccc2nc3n(c(=O)c2c1)CCC3`
59.2

Provide the documented inhibition with Acetylcholinesterase (Electrophorus electricus) as the system for `Oc1nc(S)nc2c1CCCN2`
68.3

Provide the documented inhibition with Acetylcholinesterase (Electrophorus electricus) as the system for `Nc1c2c(nc3c4c(nn13)CCC4)CCC2`
76.7

Provide the documented inhibition with Acetylcholinesterase (Electrophorus electricus) as the system for `Nc1nc(O)c2c(n1)CCC2`
45.6

Provide the documented inhibition with Acetylcholinesterase (Electrophorus electricus) as the system for `Nc1c(N)c2ccccc2oc1=O`
8.33

Provide the documented inhibition with Acetylcholinesterase (Electrophorus electricus) as the system for `Nc1c2c(nc3c1CCC3)CCCC2`
98.7

Provide the documented inhibition with Acetylcholinesterase (Electrophorus electricus) as the system for `Oc1ccnc2ccccc12`
32.5

Provide the documented inhibition with Acetylcholinesterase (Electrophorus electricus) as the system for `Nc1nc(N)c2c(n1)CCC2`
50.8

---

Hi there, I'd appreciate the recorded inhibition for every entry that follows.
Biological target: Acetylcholinesterase (Electrophorus electricus) (UniProt O42275)
Sequence (O42275 24-633 limits assumed): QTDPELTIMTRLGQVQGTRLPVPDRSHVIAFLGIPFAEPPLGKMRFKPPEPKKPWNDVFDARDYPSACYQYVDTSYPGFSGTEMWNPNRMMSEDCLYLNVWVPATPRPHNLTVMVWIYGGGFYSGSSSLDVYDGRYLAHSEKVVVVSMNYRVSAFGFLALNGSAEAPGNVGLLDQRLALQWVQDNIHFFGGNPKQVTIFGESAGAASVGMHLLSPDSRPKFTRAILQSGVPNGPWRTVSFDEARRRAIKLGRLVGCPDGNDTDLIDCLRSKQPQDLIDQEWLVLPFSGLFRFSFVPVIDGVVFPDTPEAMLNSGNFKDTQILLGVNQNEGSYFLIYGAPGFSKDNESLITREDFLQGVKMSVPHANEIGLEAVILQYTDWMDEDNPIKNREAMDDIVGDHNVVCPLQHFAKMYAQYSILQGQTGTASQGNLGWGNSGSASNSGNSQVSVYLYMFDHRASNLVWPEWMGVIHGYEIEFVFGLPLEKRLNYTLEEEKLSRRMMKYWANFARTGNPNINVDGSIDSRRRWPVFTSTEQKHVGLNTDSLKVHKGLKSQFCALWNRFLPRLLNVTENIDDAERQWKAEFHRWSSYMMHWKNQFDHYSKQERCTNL
Experiment: Inhibition of Electrophorus electricus AChE at 10 uM pre-incubated for 5 mins before acetylthiocholine iodide substrate addition by Ellman's method
Field: value (include unit after the number)

Given the molecule Nc1c2c(nc3c1C1CCCCC1S3)CCCC2 (stereo not drawn) , what is its reported inhibition?
95.6%

Given the molecule `O=c1c(Br)c[nH]c2cccnc12` , what is its reported inhibition?
28.3%

Given the molecule `O=c1c2ccccc2nc2n1CCCS2` , what is its reported inhibition?
59.2%

Given the molecule `CC(=O)c1c(C)nc2ccccc2c1N` , what is its reported inhibition?
96.9%

Given the molecule `CC1(C)CC(=O)c2c(nc3ccccc3c2N)C1` , what is its reported inhibition?
92.8%

Given the molecule `Nc1c2c(nc3ccccc13)N(Cc1ccccc1)CC2` , what is its reported inhibition?
96.4%

Given the molecule `O=C1c2ccccc2NC2=NCCCN12` , what is its reported inhibition?
26.7%

Given the molecule `Cc1cccc2c(N)c3c(nc12)N(C)CC3` , what is its reported inhibition?
89.7%

---

Hi there, I'd appreciate the recorded log10 of IC50 for every entry that follows.
Parameter value (number): base-10 log of IC50 in nM.

Provide the documented log10 of IC50 with UniProt O42275 as the system for `COc1ccc2nc(C(F)(F)F)c(C#N)c(N)c2c1`
2.84

Provide the documented log10 of IC50 with UniProt O42275 as the system for `Cc1cccc2c(N)c3c(nc12)N(C)CC3`
3.06

Provide the documented log10 of IC50 with UniProt O42275 as the system for `CC1(C)CC(=O)c2c(nc3ccccc3c2N)C1`
3.86

Provide the documented log10 of IC50 with UniProt O42275 as the system for `CCCCN1CCc2c1nc1ccc(Br)cc1c2N`
2.48

Provide the documented log10 of IC50 with UniProt O42275 as the system for `Nc1c2c(nc3ccccc13)N(Cc1ccccc1)CC2`
2.87

Provide the documented log10 of IC50 with UniProt O42275 as the system for `Nc1c2c(nc3c4c(nn13)CCC4)CCC2`
3.87

Provide the documented log10 of IC50 with UniProt O42275 as the system for `Nc1c2c(nc3sccc13)CCCC2`
2.41

---

parameter measured: IC50

Provide the documented IC50 with Acetylcholinesterase (Electrophorus electricus, UniProt O42275) as the system for Nc1c2c(nc3c1CCC3)CCCC2 [IPIDACRINE]
Sequence (O42275 whole entry): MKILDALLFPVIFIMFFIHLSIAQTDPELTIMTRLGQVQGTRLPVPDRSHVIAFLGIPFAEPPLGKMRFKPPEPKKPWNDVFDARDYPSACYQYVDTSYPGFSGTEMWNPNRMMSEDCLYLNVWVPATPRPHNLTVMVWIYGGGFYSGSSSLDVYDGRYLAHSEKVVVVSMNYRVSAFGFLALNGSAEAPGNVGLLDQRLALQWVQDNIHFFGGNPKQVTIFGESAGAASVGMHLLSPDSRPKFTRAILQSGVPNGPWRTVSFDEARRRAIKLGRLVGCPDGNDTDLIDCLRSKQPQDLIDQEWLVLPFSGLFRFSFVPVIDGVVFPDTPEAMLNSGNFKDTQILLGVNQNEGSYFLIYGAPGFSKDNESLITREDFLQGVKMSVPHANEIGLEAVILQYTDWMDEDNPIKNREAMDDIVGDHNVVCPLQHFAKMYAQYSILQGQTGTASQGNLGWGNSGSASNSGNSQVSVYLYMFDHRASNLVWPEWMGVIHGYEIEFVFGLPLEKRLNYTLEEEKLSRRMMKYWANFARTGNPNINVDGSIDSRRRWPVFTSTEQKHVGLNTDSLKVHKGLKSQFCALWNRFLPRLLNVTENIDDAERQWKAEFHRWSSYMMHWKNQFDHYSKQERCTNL
0.17 µM

Provide the documented IC50 with Acetylcholinesterase (Electrophorus electricus, UniProt O42275) as the system for Nc1c2c(nc3c1C1CCCCC1S3)CCCC2 (stereo not drawn)
0.03 µM

Provide the documented IC50 with Acetylcholinesterase (Electrophorus electricus, UniProt O42275) as the system for `CC(=O)c1c(C)nc2ccccc2c1N`
0.32 µM

---

Target: Cholinesterase (Equus caballus, UniProt P81908)
Sequence (P81908 whole entry): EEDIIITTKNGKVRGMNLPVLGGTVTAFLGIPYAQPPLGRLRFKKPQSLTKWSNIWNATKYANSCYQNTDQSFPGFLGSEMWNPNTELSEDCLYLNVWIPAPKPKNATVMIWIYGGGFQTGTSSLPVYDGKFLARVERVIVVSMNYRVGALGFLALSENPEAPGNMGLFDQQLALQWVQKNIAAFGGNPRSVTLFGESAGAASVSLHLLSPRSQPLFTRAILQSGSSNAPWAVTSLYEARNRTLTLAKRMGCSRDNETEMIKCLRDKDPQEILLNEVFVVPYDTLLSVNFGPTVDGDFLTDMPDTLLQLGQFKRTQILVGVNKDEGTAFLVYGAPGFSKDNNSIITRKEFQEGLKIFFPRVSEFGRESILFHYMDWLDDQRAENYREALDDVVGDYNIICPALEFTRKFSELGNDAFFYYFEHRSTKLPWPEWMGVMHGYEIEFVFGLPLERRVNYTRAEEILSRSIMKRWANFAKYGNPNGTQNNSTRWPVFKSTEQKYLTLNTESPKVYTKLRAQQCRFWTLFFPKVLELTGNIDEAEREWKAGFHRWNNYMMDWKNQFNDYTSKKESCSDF
// assign t if IC50 falls strictly below 2 µM, else f (ties count as f)

Determine whether this compound shows IC50 lower than 2 µM (ties excluded): `Nc1c2c(nc3c4c(nn13)CCC4)CCC2`
f

Determine whether this compound shows IC50 lower than 2 µM (ties excluded): `CC(=O)c1c(C)nc2ccccc2c1N`
t

Determine whether this compound shows IC50 lower than 2 µM (ties excluded): Nc1c2c(nc3c1CCC3)CCCC2 [IPIDACRINE]
t

Determine whether this compound shows IC50 lower than 2 µM (ties excluded): Nc1c2c(nc3c1C1CCCCC1S3)CCCC2 (stereo not given)
t

Determine whether this compound shows IC50 lower than 2 µM (ties excluded): `Cc1cccc2c(N)c3c(nc12)N(C)CC3`
f

Determine whether this compound shows IC50 lower than 2 µM (ties excluded): `CC1(C)CC(=O)c2c(nc3ccccc3c2N)C1`
f

Determine whether this compound shows IC50 lower than 2 µM (ties excluded): `Nc1c2c(nc3ccccc13)N(Cc1ccccc1)CC2`
f

Determine whether this compound shows IC50 lower than 2 µM (ties excluded): `Nc1c2c(nc3sccc13)CCCC2`
t

Determine whether this compound shows IC50 lower than 2 µM (ties excluded): `CCCCN1CCc2c1nc1ccc(Br)cc1c2N`
f

Determine whether this compound shows IC50 lower than 2 µM (ties excluded): `COc1ccc2nc(C(F)(F)F)c(C#N)c(N)c2c1`
f

---

Molecular target: UniProt P81908
Experiment: Inhibition of equine serum BChE at 10 uM pre-incubated for 5 mins before butyrylthiocholineiodide substrate addition by Ellman's method
Hi there, I'd appreciate the recorded inhibition for every entry that follows.
# number only, unit % dropped from output

Given the molecule `Cc1cccc2c(N)c3c(nc12)N(C)CC3` , what is its reported inhibition?
90.8

Given the molecule `COc1ccc2nc(C(F)(F)F)c(C#N)c(N)c2c1` , what is its reported inhibition?
35.4

Given the molecule `Nc1c(N)c2ccccc2oc1=O` , what is its reported inhibition?
27.9

Given the molecule `Nc1c2c(nc3sccc13)CCCC2` , what is its reported inhibition?
98.2

Given the molecule `CC(=O)c1c(C)nc2ccccc2c1N` , what is its reported inhibition?
99.7

Given the molecule `CC(=O)c1oc2ccccc2c1N` , what is its reported inhibition?
49.2

Given the molecule `O=c1c2ccccc2nc2n1CCCS2` , what is its reported inhibition?
45

Given the molecule `CCCCN1CCc2c1nc1ccc(Br)cc1c2N` , what is its reported inhibition?
92.5

Given the molecule `O=C1c2ccccc2NC2=NCCCN12` , what is its reported inhibition?
42.5

Given the molecule `Oc1ccnc2ccccc12` , what is its reported inhibition?
28.8

Given the molecule `Nc1ccc2nc3n(c(=O)c2c1)CCC3` , what is its reported inhibition?
31.7

Given the molecule `CC1(C)CC(=O)c2c(nc3ccccc3c2N)C1` , what is its reported inhibition?
85

Given the molecule `Nc1c2c(nc3c1CCC3)CCCC2` , what is its reported inhibition?
99

Given the molecule Nc1c2c(nc3c1C1CCCCC1S3)CCCC2 (centres undefined) , what is its reported inhibition?
98.8
